- measurement_target: HLA-C*07:02
- test: IEDB peptide-MHC binding, purified MHC/direct/fluorescence; filed as Kd, often an IC50 or EC50 that approximates it; bounds were set here for any values at or beyond the usual limits of such assays
- recorded_conditions: source organism: Listeria monocytogenes serotype 1/2a str. F6854
readout_type: Kd
Write the numeric value and append its unit.

(Q) Notebook entry, HLA-C*07:02 assay: Kd of `KMIGNLLSF` = ?
(A) 666 nM

----------
- measurement_target: HLA-A*02:01
- test: IEDB peptide-MHC binding, purified MHC/competitive/fluorescence; filed as Kd, often an IC50 or EC50 that approximates it; bounds were set here for any values at or beyond the usual limits of such assays
- recorded_conditions: source organism: Listeria monocytogenes EGD-e
readout_type: pKd
Reminder that pKd means the negative base-10 logarithm of the concentration expressed in mol/L.

(Q) Fill in the blank: the reported pKd of `LAIVTTPLV` is ____.
(A) 7.57
